// data source = the supplement of paper PMC4166925

System: SpTbr T-box DNA-binding domain (GST fusion);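 also: protein at 200 nM in PBS on universal double-stranded arrays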
Sequence: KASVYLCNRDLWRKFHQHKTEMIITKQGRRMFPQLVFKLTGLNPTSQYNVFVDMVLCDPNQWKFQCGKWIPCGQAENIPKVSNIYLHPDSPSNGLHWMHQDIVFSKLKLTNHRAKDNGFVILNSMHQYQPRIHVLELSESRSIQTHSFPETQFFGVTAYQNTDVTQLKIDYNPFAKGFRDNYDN
Assay: PBM E-score of 8-mer (E-score (dimensionless, -0.5 to 0.5)); higher = stronger binding preference
Conditions: the construct has about 5 more residues each side
In all, about 33,000 sequences were measured (“E-score (dimensionless, -0.5 to 0.5)”: median about -0.046, highest 2% from about 0.36 on). The sample as a whole holds a higher share of the highest values than the screen did.
Each item that follows carries a reported PBM E-score of 8-mer.

[in] Requested read-out: PBM E-score of 8-mer. Entry: `CCACACGG`
[out] 0.0912

[in] Reported PBM E-score of 8-mer, sequence `ATCACTTG` : ____
[out] 0.169

[in] Fill blank: measured PBM E-score of 8-mer of the sequence `CTCACCTA` is ____.
[out] 0.385

[in] Look at this sequence and give its reported PBM E-score of 8-mer. `AAGGTTAG`
[out] -0.0571

[in] Entry under review: `CACCACCA` . Reported PBM E-score of 8-mer?
[out] 0.145

[in] For the sequence `AATGACAC` , what PBM E-score of 8-mer is on record?
[out] 0.38

[in] If you can, please state the reported PBM E-score of 8-mer value of `GAGCAGTA` .
[out] -0.00784

[in] Fill in the blank: the reported PBM E-score of 8-mer of `AAGTGTCA` is ____.
[out] 0.463

[in] Entry `GTGTTGGA` : reported PBM E-score of 8-mer = ?
[out] 0.367

[in] What does the record list as PBM E-score of 8-mer for `CCTCTGCA` ?
[out] -0.141

[in] Which PBM E-score of 8-mer value is on record for `CTTGGAAC` ?
[out] -0.26

[in] Form field: reported PBM E-score of 8-mer of `GTCACCCA`
[out] 0.203

[in] So what's the measured PBM E-score of 8-mer for this one? `ATGTTATA`
[out] -0.0933

[in] Please report the recorded PBM E-score of 8-mer for `CGTCAAAG` .
[out] 0.228

[in] So what's the measured PBM E-score of 8-mer for this one? `GTCACCTA`
[out] 0.392

[in] Param item = `GATGACCC` ; retrieve measured PBM E-score of 8-mer.
[out] 0.12

[in] // query PBM E-score of 8-mer value for entry `AAGTGAAG`
[out] 0.13

[in] Look up PBM E-score of 8-mer: `ACAGAACA`
[out] -0.0577

[in] Data request, read-out PBM E-score of 8-mer, for `ACCGGTAC`
[out] -0.175

[in] So what does the record say about PBM E-score of 8-mer for `AAGTGTCC` ?
[out] 0.247

----------
System: SpTbr T-box DNA-binding domain (GST fusion);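 also: protein at 200 nM in PBS on universal double-stranded arrays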
Sequence: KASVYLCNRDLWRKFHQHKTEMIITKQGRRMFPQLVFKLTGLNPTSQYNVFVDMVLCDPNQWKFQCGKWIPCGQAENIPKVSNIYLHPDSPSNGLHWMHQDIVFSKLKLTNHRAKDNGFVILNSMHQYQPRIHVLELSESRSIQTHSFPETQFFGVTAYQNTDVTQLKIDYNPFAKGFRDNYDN
Assay: PBM E-score of 8-mer (E-score (dimensionless, -0.5 to 0.5)); higher = stronger binding preference
Conditions: target sequence: T-box / the construct has about 5 more residues each side
Whole data set: some 33,000 sequences, median “E-score (dimensionless, -0.5 to 0.5)” near -0.046, cut for the highest 2% near 0.36. The entries come from a sample that favours the highest values as a whole.
PBM E-score of 8-mer: recorded values
Simply state the number, no unit and no words.

Past entries and their recorded results:
# SEQUENCE, PBM E-score of 8-mer
measured = [
    ("AAATGTGC", 0.151),
    ("CGGAAAAA", 0.019),
    ("GTGTGGGA", 0.387),
    ("ATTTACCG", -0.131),
    ("CACCTACC", 0.394),
]

[in] Requested read-out: PBM E-score of 8-mer. Entry: `AGTGTGTC`
[out] 0.234

[in] For `CGCACCCA` , what is its reported PBM E-score of 8-mer?
[out] 0.372

[in] // query PBM E-score of 8-mer value for entry `CCGCGAGA`
[out] 0.224

[in] Fill blank: measured PBM E-score of 8-mer of the sequence `ATTGTCAA` is ____.
[out] 0.225

[in] What value of measured PBM E-score of 8-mer is listed for `AACGCATA` ?
[out] 0.0089

[in] For the sequence `AAACCACT` , what PBM E-score of 8-mer is on record?
[out] -0.258

[in] // lookup PBM E-score of 8-mer for `CAAGCTAC`
[out] -0.147

[in] What value of measured PBM E-score of 8-mer is listed for `GGACACAC` ?
[out] 0.0866

[in] Given the sequence `AAATGTGT` , what is its reported PBM E-score of 8-mer?
[out] 0.435

[in] So what does the record say about PBM E-score of 8-mer for `GTGGTGCA` ?
[out] 0.0312

----------
Test system: SpTbr T-box DNA-binding domain (GST fusion);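 also: protein at 200 nM in PBS on universal double-stranded arrays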
Sequence: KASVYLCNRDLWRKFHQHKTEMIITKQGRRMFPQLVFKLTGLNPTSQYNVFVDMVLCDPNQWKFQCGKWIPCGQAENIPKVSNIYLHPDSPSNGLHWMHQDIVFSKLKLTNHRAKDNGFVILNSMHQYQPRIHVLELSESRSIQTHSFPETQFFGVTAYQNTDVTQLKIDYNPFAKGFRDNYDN
Assay: PBM E-score of 8-mer (E-score (dimensionless, -0.5 to 0.5)); higher = stronger binding preference
Conditions: target sequence: T-box / the construct has about 5 more residues each side
Over roughly 33,000 sequences, “E-score (dimensionless, -0.5 to 0.5)” has its median near -0.046; the highest 2% begin near 0.36. The entries come from a sample that favours the highest values as a whole.
MEASUREMENT_NAME: PBM E-score of 8-mer
Please give only the number in your answer, with no unit.

Some solved entries appear below for comparison.
# SEQUENCE, PBM E-score of 8-mer
rows = [
    ("CCACCTCC", 0.324),
    ("GCCACTTA", 0.244),
    ("AACACTTG", 0.395),
]

[in] What value of PBM E-score of 8-mer on SpTbr T-box DNA-binding domain (GST fusion) does `AACACTAG` have?
[out] 0.222

[in] Notebook: pull reported PBM E-score of 8-mer for SpTbr T-box DNA-binding domain (GST fusion), entry `CGGTGACG`
[out] 0.233

[in] # get_value(readout= PBM E-score of 8-mer, system= SpTbr T-box DNA-binding domain (GST fusion)) for `GACACTGA`;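 also: protein at 200 nM in PBS on universal double-stranded arrays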
[out] 0.093

[in] Notebook entry, SpTbr T-box DNA-binding domain (GST fusion) assay: PBM E-score of 8-mer of `AGGTGACG` = ?
[out] 0.453

[in] Request - read-out PBM E-score of 8-mer | tested on SpTbr T-box DNA-binding domain (GST fusion) | sequence `ATCGTGAG`;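 also: protein at 200 nM in PBS on universal double-stranded arrays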
[out] 0.208

[in] Short answer please: PBM E-score of 8-mer, SpTbr T-box DNA-binding domain (GST fusion), entry `GTCTTGGA`
[out] -0.322

----------
Tested on: SpTbr T-box DNA-binding domain (GST fusion);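 also: protein at 200 nM in PBS on universal double-stranded arrays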
Sequence: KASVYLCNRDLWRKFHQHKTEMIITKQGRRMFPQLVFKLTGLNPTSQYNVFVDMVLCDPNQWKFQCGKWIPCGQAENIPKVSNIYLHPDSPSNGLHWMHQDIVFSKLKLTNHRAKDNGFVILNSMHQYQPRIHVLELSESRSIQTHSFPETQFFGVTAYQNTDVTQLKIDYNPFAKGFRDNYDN
Assay: PBM E-score of 8-mer (E-score (dimensionless, -0.5 to 0.5)); Tbr is Tbrain of the sea star Patiria miniata (Pm) or the sea urchin Strongylocentrotus purpuratus (Sp); higher = stronger binding preference
Details: target sequence: T-box / the construct has about 5 more residues each side
The full ranking holds about 33,000 sequences; the median of “E-score (dimensionless, -0.5 to 0.5)” is about -0.046, and the highest 2% start at about 0.36. Shown is part of a subset that was picked to be rich in the highest values.
Attribute: PBM E-score of 8-mer

Here is how some sequences turned out for PBM E-score of 8-mer.
# SEQUENCE, PBM E-score of 8-mer
records = [
    ("AAGCGTGT", 0.288),
    ("CTGTTGTA", 0.0999),
    ("ATATCCAT", -0.037),
    ("ACGCGTGC", 0.149),
    ("ATGTGTTG", 0.381),
    ("AGGCGTGC", 0.236),
    ("CCAGCGGA", -0.0913),
    ("CTGCGTGA", 0.172),
    ("ATCTCCGG", 0.0811),
    ("AGGTTTGC", -0.0997),
]

[in] Given `AAGCGTGA` , state its recorded PBM E-score of 8-mer.
[out] 0.415

[in] What value of measured PBM E-score of 8-mer is listed for `CACTTAGG` ?
[out] 0.117
